Below, each entry is listed with its recorded INHIBITION.
tested on: Plasmodium berghei; experiment: Screen against P. berghei liver stage (PbLuc), transformed with Luciferase, at 10uM; type: functional, HepG2; settings: tested at 10 uM
In all, about 69,000 compounds went through this assay and about 8,600 (12%) showed an effect of 50% or more. The list comes from a sample in which strong results are over-represented; it also holds close analogues and randomly drawn compounds.
measure name: INHIBITION (%)

{"compound": "Cc1cc(C(=O)N2CCCC(n3cccn3)C2)c(C)n1C1CC1 (stereo unspecified)", "measure name": "INHIBITION", "unit of measurement": "%", "reported value": 5.7}
{"compound": "Cc1oc(-c2ccsc2)nc1CN1CC[C@@H]2CCCC[C@H]2C1", "measure name": "INHIBITION", "unit of measurement": "%", "reported value": 28.4}
{"compound": "Cc1oc(-c2ccccc2)nc1CN1CCC(c2ccnn2C)CC1", "measure name": "INHIBITION", "unit of measurement": "%", "reported value": 69.7}
{"compound": "Cc1oc(-c2ccsc2)nc1CN1CCCC(c2ccnn2C)C1 (stereo unspecified)", "measure name": "INHIBITION", "unit of measurement": "%", "reported value": 66.3}
{"compound": "CSc1ccc(-c2nc(CN3CCC(C(N)=O)CC3)c(C)o2)cc1", "measure name": "INHIBITION", "unit of measurement": "%", "reported value": -10.2375}
{"compound": "COc1ccc(-n2ncc(C(C)NC3Cc4ccccc4C3)c2C)cc1 (stereo unspecified)", "measure name": "INHIBITION", "unit of measurement": "%", "reported value": 63.8}
{"compound": "Cc1c(C(C)NC2CSCCSC2)cnn1-c1ccc(F)cc1F (stereo unspecified)", "measure name": "INHIBITION", "unit of measurement": "%", "reported value": 43.7}
{"compound": "COCCN1CCC(c2nc3c([nH]2)CCCNC3=O)CC1", "measure name": "INHIBITION", "unit of measurement": "%", "reported value": 44}
{"compound": "CSc1ccc(-c2nc(CN3CCC(CN)C3)c(C)o2)cc1 (stereo unspecified)", "measure name": "INHIBITION", "unit of measurement": "%", "reported value": -70.3}
{"compound": "CCc1nc(C2CCCN(C(=O)c3cccnc3O)C2)no1 (stereo unspecified)", "measure name": "INHIBITION", "unit of measurement": "%", "reported value": 9.14}
{"compound": "Cc1noc(Cl)c1CC(=O)N1CCC(Nc2cccnn2)CC1", "measure name": "INHIBITION", "unit of measurement": "%", "reported value": 18.04}

All figures here come from ChEMBL document CHEMBL4513216.
